# condition.description: [M+H]+; instrument: DT; stepped-field
readout: collision cross section (N2) (Å²)

CCCCC/C=C\C/C=C\CCCCCCCCCC(=O)O[C@H](COC(=O)CCCCCCCCCCCCCCC)COP(=O)(O)OCCN	293
CCCCC/C=C\C/C=C\C/C=C\CCCCCCC(=O)O[C@H](COCCCCCCCCCCCCCCCCCC)COP(=O)(O)OCCN	297.6
CCCCC/C=C\C/C=C\C/C=C\CCCCCCC(=O)O[C@H](COCCCCCCCCCCCCCCCC)COP(=O)([O-])OCC[N+](C)(C)C	301

====

# condition.description: [M+H]+; instrument: DT; single field, calibrated with ESI Low Concentration Tuning Mix (Agilent)
readout: collision cross section (N2) (Å²)

CCCCC(CC)COC(=O)c1ccccc1C(=O)OCC(CC)CCCC (stereo not given) [BIS(2-ETHYLHEXYL)PHTHALATE]	212.2
C[C@]12C[C@H](O)[C@H]3[C@@H](CCC4=CC(=O)CC[C@@]43C)[C@@H]1CC[C@@H]2C(=O)CO	186.9
CC(=O)NC1C(OP(=O)(O)OP(=O)(O)OCC2OC(n3ccc(=O)[nH]c3=O)C(O)C2O)OC(CO)C(O)C1O (stereo not given) [URIDINE DIPHOSPHATE-N-ACETYLGALACTOSAMINE]	216.2
C[C@]12CCC(=O)C=C1CC[C@@H]1[C@@H]2CC[C@@]2(C)[C@H]1CC[C@]2(O)C(=O)CO [CORTEXOLONE]	187.7
C[C@@H]1NCCc2cc(O)c(O)cc21	142.7
CC(=O)NCCCNCCCCNCCCN	158
Cn1cnc(N)c2ncnc1-2	126.3
Cc1ncc(CO)c(C(=O)O)c1O [4-PYRIDOXATE]	135.5
Cn1cncc1CCN	123.8
Nc1ncnc2c1ncn2[C@@H]1O[C@H](COP(=O)(O)OP(=O)([O-])OC[C@H]2O[C@@H]([n+]3cccc(C(=O)O)c3)[C@H](O)[C@@H]2O)[C@@H](O)[C@H]1OP(=O)(O)O [NICOTINIC ACID ADENINE DINUCLEOTIDE PHOSPHATE]	230.4
Nc1ncnc2c1ncn2[C@H]1C[C@H](O)[C@@H](COP(=O)(O)OP(=O)(O)OP(=O)(O)O)O1 [DEOXYADENOSINE TRIPHOSPHATE]	194.8
O=c1ccn([C@@H]2O[C@H](COP(=O)(O)O)[C@@H](O)[C@H]2O)c(=O)[nH]1 [URIDINE MONOPHOSPHATE]	165.7
O=C(O)c1cccnc1C(=O)O [QUINOLINATE]	132.3
CC(=O)OCC(=O)[C@H]1CC[C@H]2[C@@H]3CCC4=CC(=O)CC[C@]4(C)[C@H]3CC[C@]12C [DEOXYCORTICOSTERONE ACETATE]	196.9
Nc1ncnc2c1ncn2[C@@H]1O[C@H](COP(=O)(O)O)[C@@H](O)[C@H]1O [ADENOSINE MONOPHOSPHATE]	171.4
